Recorded interaction score for the following binders
Molecular target: T1, 4H491-bA
T1 chain: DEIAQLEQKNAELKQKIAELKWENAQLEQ
Assay: two-hybrid library CCNG1;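 also: natural log of median RNA to DNA barcode read ratio; higher means stronger binding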

Binder	interaction score
DEIAQLEQKNAELKQKIAELKWENAQLEQ [4H491-bA]	-0.879
DKIAQLKQENAELEQEIAELEWKNAQLKQ [4H2696-bA]	1.93
DEIAQLEQEIAELEQKIAELKWKNAQLKQ [4H48-bA]	1.09
DEIAQLEQKIAELKQENAELEWKIAQLKQ [4H342-bA]	1.5

Hello, the source for this data is paper PMC10397247, in case you need it.
